target: CDK4/cyclin D3 (Homo sapiens); assay: Inhibition of CDK4/Cyclin D retinoblastoma kinase activity; conditions: apparent Ki, Rb fragment substrate
Sequence (P11802 whole entry, the tested form may be a part): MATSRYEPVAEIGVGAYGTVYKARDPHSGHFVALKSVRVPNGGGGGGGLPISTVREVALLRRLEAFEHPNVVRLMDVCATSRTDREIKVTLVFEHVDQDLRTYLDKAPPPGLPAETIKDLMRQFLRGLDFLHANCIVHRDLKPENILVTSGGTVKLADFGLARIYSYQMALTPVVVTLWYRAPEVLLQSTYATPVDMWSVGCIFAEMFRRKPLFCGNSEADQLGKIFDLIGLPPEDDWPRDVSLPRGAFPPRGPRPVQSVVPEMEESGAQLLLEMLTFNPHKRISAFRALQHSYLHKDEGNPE
Sequence (P30281 1-264 partner limits assumed): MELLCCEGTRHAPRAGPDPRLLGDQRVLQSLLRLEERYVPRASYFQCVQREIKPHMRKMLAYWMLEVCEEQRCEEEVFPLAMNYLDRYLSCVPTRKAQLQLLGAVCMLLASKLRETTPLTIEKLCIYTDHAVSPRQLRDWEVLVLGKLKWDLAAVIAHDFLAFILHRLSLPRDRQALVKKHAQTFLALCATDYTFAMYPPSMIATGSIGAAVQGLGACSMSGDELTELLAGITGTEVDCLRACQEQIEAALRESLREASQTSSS
pKi: −log10 of the molar value.
I would appreciate it if you labelled entries Criterion met when pKi is 8 or higher, otherwise Criterion not met.

# input // inclusive: pKi at least 8? input: Nc1nc(Nc2ccc([S+]([O-])CCO)cc2)sc1C(=O)c1c(Cl)cccc1Cl (centres unmarked)
# output Criterion not met

----------
In this section, each of the molecules is paired with its reported % Inhib CDK4/D @ 0.1 μM.
biological target: CDK4/cyclin D3 (Homo sapiens); construct: made in house; host or cells: insect cells (baculovirus co-infection); test: Inhibition of CDK4/Cyclin D retinoblastoma kinase activity; format: biochemical; conditions: test compound at 0.1 μM; 0.1 µM
Only the number, expressed in %, is required.

Below, each entry is followed by its recorded % Inhib CDK4/D @ 0.1 μM result.
- molecule: "COc1cccc(CS(=O)(=O)c2ccc(Nc3nc(N)c(C(=O)c4c(Cl)cccc4Cl)s3)cc2)c1 [DD(177)]"
  % Inhib CDK4/D @ 0.1 μM / %: 15
- molecule: "CC(C)CCCS(=O)(=O)c1ccc(Nc2nc(N)c(C(=O)c3c(Cl)cccc3Cl)s2)cc1"
  % Inhib CDK4/D @ 0.1 μM / %: 20
- molecule: "CCOC(=O)CCS(=O)(=O)c1ccc(Nc2nc(N)c(C(=O)c3c(Cl)cccc3Cl)s2)cc1 [DD(222)]"
  % Inhib CDK4/D @ 0.1 μM / %: "−11"
- molecule: "COC(=O)/C=C/CS(=O)(=O)c1ccc(Nc2nc(N)c(C(=O)c3c(Cl)cccc3Cl)s2)cc1 [DD(203)]"
  % Inhib CDK4/D @ 0.1 μM / %: 37

Per the records, this molecule ( Nc1nc(Nc2ccc(S(=O)(=O)CCN3CCCC3)cc2)sc1C(=O)c1c(Cl)cccc1Cl [DD(167)] ) has % Inhib CDK4/D @ 0.1 μM equal to 17

----------
biological target: CDK4/cyclin D3 (Homo sapiens); construct: made in house; host or cells: insect cells (baculovirus co-infection); experiment: Inhibition of CDK4/Cyclin D retinoblastoma kinase activity; format: biochemical; settings: test compound at 0.03 (unit cell empty, head line shifted; μM); read-out: % Inhib CDK4/D @ 0.03
endpoint: inhibition at 0.03 µM (%)
Just the number please, in %, no unit attached.

The examples below pair each entry with its known result.
- compound: "CC(C)CCCSc1ccc(Nc2nc(N)c(C(=O)c3c(Cl)cccc3Cl)s2)cc1"
  measurement-unit: "%"
  inhibition at 0.03 µM: 3.1
- compound: "Nc1nc(Nc2ccc([S+]([O-])CCN3CCCCC3)cc2)sc1C(=O)c1c(Cl)cccc1Cl (centres unmarked)"
  measurement-unit: "%"
  inhibition at 0.03 µM: -6.3
- compound: "CC(C)=CCSc1cccc(Nc2nc(N)c(C(=O)c3c(Cl)cccc3Cl)s2)c1"
  measurement-unit: "%"
  inhibition at 0.03 µM: -11

get_value(item= Nc1nc(Nc2ccc([S+]([O-])CC3CO3)cc2)sc1C(=O)c1c(Cl)cccc1Cl (centres unmarked) , readout=inhibition at 0.03 µM) returns -4.6

Lab note: NC(=O)CC[S+]([O-])c1ccc(Nc2nc(N)c(C(=O)c3c(Cl)cccc3Cl)s2)cc1 (centres unmarked) gave inhibition at 0.03 µM of 14

// sample Nc1nc(Nc2ccc([S+]([O-])Cc3ccncc3)cc2)sc1C(=O)c1c(Cl)cccc1Cl (centres unmarked) , its inhibition at 0.03 µM was 6.3

Notebook: Nc1nc(Nc2cccc([S+]([O-])CCCO)c2)sc1C(=O)c1c(Cl)cccc1Cl (centres unmarked) , inhibition at 0.03 µM read as 15

The reported inhibition at 0.03 µM of the compound CN(C)CCCSc1ccc(Nc2nc(N)c(C(=O)c3c(Cl)cccc3Cl)s2)cc1 was 2.6
